The measured values listed here are drawn from ChEMBL document CHEMBL3425474.

molecular target: UniProt Q9Y5N1; assay: Modulation of human histamine H3 receptor expressed in HEK293 cells assessed as change in forskolin-stimulated cAMP level after 1 hr by HTRF assay
Sequence (Q9Y5N1 whole entry): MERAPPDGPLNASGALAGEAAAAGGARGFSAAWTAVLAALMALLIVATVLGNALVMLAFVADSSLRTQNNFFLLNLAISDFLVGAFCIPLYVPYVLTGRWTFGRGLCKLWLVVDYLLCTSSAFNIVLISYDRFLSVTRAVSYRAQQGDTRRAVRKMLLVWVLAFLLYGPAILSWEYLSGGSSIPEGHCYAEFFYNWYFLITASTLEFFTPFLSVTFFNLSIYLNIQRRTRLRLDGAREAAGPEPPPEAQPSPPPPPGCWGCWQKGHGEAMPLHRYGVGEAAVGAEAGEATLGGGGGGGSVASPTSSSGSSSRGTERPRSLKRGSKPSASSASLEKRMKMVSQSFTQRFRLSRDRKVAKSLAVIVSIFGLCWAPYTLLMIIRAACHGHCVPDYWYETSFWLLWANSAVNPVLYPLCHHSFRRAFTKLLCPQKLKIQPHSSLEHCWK
Can you tell me pIC50 for the items I'm about to list?
Give bare numbers, as −log10 of the molar value.

Some entries whose results are on file:
| smi | readout_value |
| --- | --- |
| COC(=O)CCCC(=O)NC1(c2ccc(-c3ccc(CCN4CCC[C@H]4C)cc3)cc2)CCCC1 | 7.82 |
| C[C@@H]1CCCN1CCc1ccc(-c2ccc(C3(NC(=O)CCCC(=O)O)CCCC3)cc2)cc1 | 8.68 |
| C[C@@H]1CCCN1CCc1ccc(-c2ccc(NC(=O)CCC(=O)O)cc2)cc1 | 8.60 |
| C[C@@H]1CCCN1CCc1ccc(-c2ccc(CCNC(=O)C(C)(C)C(=O)OC(C)(C)C)cc2)cc1 | 9.02 |
| COC(=O)CC(=O)NCCc1ccc(-c2ccc(CCN3CCC[C@H]3C)cc2)cc1 | 9.00 |

Give me pIC50 for each of these compounds, listed below.
1. C[C@@H](C(=O)NCCc1ccc(-c2ccc(CCN3CCC[C@H]3C)cc2)cc1)C(=O)OC(C)(C)C
2. COC(=O)CC(=O)NC1(c2ccc(-c3ccc(CCN4CCC[C@H]4C)cc3)cc2)CCCC1
3. COC(=O)C(C)(C)C(=O)Nc1ccc(-c2ccc(CCN3CCC[C@H]3C)cc2)cc1

[out]
[8.68, 8.72, 8.92]
